system: HCT-116; assay: Antitumor activity against human HCT-116 cells incubated for 48 hrs; type: functional
Entries and their GI50 values follow.
observable: GI50

smiles text: [2H]C([2H])([2H])Oc1cc(C(=O)Nc2cc3c(cc2Oc2cc(C)cc(C)c2)C(=O)N[C@@H](CC(=O)N(C([2H])([2H])C([2H])([2H])[2H])C([2H])([2H])C([2H])([2H])[2H])C(=O)N3)c(Cl)c(OC([2H])([2H])[2H])c1OC([2H])([2H])[2H]
assayed target: HCT-116
value observed: < 5 nM
//
smiles text: CCN(CC)C(=O)C[C@H]1C(=O)Nc2cc(NC(=O)c3cc(OC)c(OC)c(OC)c3Br)c(Oc3cc(C)cc(C)c3)cc2C(=O)N1C
assayed target: HCT-116
value observed: < 5 nM
//
smiles text: [2H]C([2H])([2H])Oc1cc(C(=O)Nc2cc3c(cc2Oc2cc(C)cc(C)c2)C(=O)N(C)[C@@H](CC(=O)N(C([2H])([2H])C([2H])([2H])[2H])C([2H])([2H])C([2H])([2H])[2H])C(=O)N3)c(Br)c(OC([2H])([2H])[2H])c1OC([2H])([2H])[2H]
assayed target: HCT-116
value observed: < 5 nM
//
smiles text: [2H]C([2H])([2H])Oc1cc(C(=O)Nc2cc3c(cc2Oc2cc(C)cc(C)c2)C(=O)N[C@@H](CC(=O)N(C([2H])([2H])[2H])C([2H])([2H])[2H])C(=O)N3)c(Br)c(OC([2H])([2H])[2H])c1OC([2H])([2H])[2H]
assayed target: HCT-116
value observed: < 5 nM
//
smiles text: [2H]C([2H])([2H])C([2H])([2H])N(C(=O)C[C@H]1C(=O)Nc2cc(NC(=O)c3cc(OC)c(OC)c(OC)c3Br)c(Oc3cc(C)cc(C)c3)cc2C(=O)N1C)C([2H])([2H])C([2H])([2H])[2H]
assayed target: HCT-116
value observed: 15.6 nM
//
smiles text: COc1cc(C(=O)Nc2cc3c(cc2Oc2cc(C)cc(C)c2)C(=O)N(C)[C@@H](CC(=O)N(C)C)C(=O)N3)c(Br)c(OC)c1OC
assayed target: HCT-116
value observed: < 5 nM
//
smiles text: [2H]C([2H])([2H])C([2H])([2H])N(C(=O)C[C@@H]1NC(=O)c2cc(Oc3cc(C)cc(C)c3)c(NC(=O)c3cc(OC)c(OC)c(OC)c3Br)cc2NC1=O)C([2H])([2H])C([2H])([2H])[2H]
assayed target: HCT-116
value observed: < 5 nM
//
smiles text: [2H]C([2H])([2H])Oc1cc(C(=O)Nc2cc3c(cc2Oc2cc(C)cc(C)c2)C(=O)N[C@@H](CC(=O)N(C([2H])([2H])C([2H])([2H])[2H])C([2H])([2H])C([2H])([2H])[2H])C(=O)N3)c(Br)c(OC([2H])([2H])[2H])c1OC([2H])([2H])[2H]
assayed target: HCT-116
value observed: < 5 nM
//
smiles text: [2H]C([2H])([2H])N(C(=O)C[C@@H]1NC(=O)c2cc(Oc3cc(C)cc(C)c3)c(NC(=O)c3cc(OC)c(OC)c(OC)c3Br)cc2NC1=O)C([2H])([2H])[2H]
assayed target: HCT-116
value observed: 7.1 nM
